- method summary: Pharmacokinetics in mice
- Format: in vivo, ICR mice
- condition description: ICR, mouse, 10 mg/kg, PO, 10 mpk, plasma, read-out: Retention time MRTinf
- Method: […] A solution at concentration of 0.5 mg/mL was prepared. […] Then the concentrations of tested compounds in the plasma were determined by LC/MS/MS.
Please respond with reported MRT inf for every item in the list.
Give just the number in h; leave the unit off.

Incoming: Which MRT inf is reported for this compound? NS(=O)(=O)N1CC(CNc2nonc2/C(=N/O)Nc2ccc(F)c(Br)c2)C1
Outgoing: 3.28

Incoming: Which MRT inf is reported for this compound? NS(=O)(=O)NCCNc1nonc1C(=NO)Nc1ccc(F)c(Br)c1 [INCB24360, reference compound]
Outgoing: 2.03

* * *

- method summary: Pharmacokinetics in mice
- Format: in vivo, ICR mice
- condition description: ICR, mouse, 10 mg/kg, PO, 10 mpk, plasma, read-out: Blood concentration Cmax
Please respond with reported Cmax for every item in the list.
Give just the number in ng/mL; leave the unit off.

Incoming: Which Cmax is reported for this molecule? NS(=O)(=O)NCCNc1nonc1C(=NO)Nc1ccc(F)c(Br)c1 [INCB24360, reference compound]
Outgoing: 992

Incoming: Which Cmax is reported for this molecule? NS(=O)(=O)N1CC(CNc2nonc2/C(=N/O)Nc2ccc(F)c(Br)c2)C1
Outgoing: 1080

* * *

- method summary: Pharmacokinetics in mice
- Format: in vivo, ICR mice
- condition description: ICR, mouse, 10 mg/kg, PO, 10 mpk, plasma, read-out: Peak time tmax
readout name: Tmax
Write your answer as a measured quantity: the number, then the unit.

Incoming: Which Tmax is reported for this compound? NS(=O)(=O)NCCNc1nonc1C(=NO)Nc1ccc(F)c(Br)c1 [INCB24360, reference compound]
Outgoing: 30 min

Incoming: Which Tmax is reported for this compound? NS(=O)(=O)N1CC(CNc2nonc2/C(=N/O)Nc2ccc(F)c(Br)c2)C1
Outgoing: 30 min

* * *

- target system: human IDO1 protease (Homo sapiens (Human), UniProt P14902)
- Sequence (P14902 whole entry): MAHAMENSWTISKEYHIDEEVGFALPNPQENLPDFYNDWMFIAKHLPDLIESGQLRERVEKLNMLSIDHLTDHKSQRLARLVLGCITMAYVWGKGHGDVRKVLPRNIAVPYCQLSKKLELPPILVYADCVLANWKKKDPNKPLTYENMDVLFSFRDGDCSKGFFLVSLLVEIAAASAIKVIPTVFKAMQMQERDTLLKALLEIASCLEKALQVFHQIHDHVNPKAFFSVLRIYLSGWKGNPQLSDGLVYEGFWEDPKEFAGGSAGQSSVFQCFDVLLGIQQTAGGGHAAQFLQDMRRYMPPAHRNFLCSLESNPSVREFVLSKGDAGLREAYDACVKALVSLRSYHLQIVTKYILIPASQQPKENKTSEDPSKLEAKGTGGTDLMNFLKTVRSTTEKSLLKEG
readout name: IC50 (nM)
Give just the number in nM; leave the unit off.

Incoming: Observed IC50 on human IDO1 protease (Homo sapiens (Human), UniProt P14902) for NS(=O)(=O)N1CC(CNc2nonc2/C(=N/O)Nc2ccc(F)c(Br)c2)C1 , please.
Outgoing: 55

Incoming: Observed IC50 on human IDO1 protease (Homo sapiens (Human), UniProt P14902) for NS(=O)(=O)N1CCC(CNc2nonc2/C(=N/O)Nc2ccc(F)c(Br)c2)C1 (stereo not shown) , please.
Outgoing: 59

Incoming: Observed IC50 on human IDO1 protease (Homo sapiens (Human), UniProt P14902) for NS(=O)(=O)N1CCC1CNc1nonc1/C(=N/O)Nc1ccc(F)c(Br)c1 (stereo not shown) , please.
Outgoing: 133

Incoming: Observed IC50 on human IDO1 protease (Homo sapiens (Human), UniProt P14902) for NS(=O)(=O)N1CCCCC1CNc1nonc1/C(=N/O)Nc1ccc(F)c(Br)c1 (stereo not shown) , please.
Outgoing: 279

* * *

- method summary: Pharmacokinetics in mice
- Format: in vivo, ICR mice
- condition description: ICR, mouse, 10 mg/kg, PO, 10 mpk, plasma, read-out: Half time t1/2 (converted)
readout name: half-life (h)
Give just the number in h; leave the unit off.

Incoming: Which half-life is reported for this compound? NS(=O)(=O)N1CC(CNc2nonc2/C(=N/O)Nc2ccc(F)c(Br)c2)C1
Outgoing: 5.06

* * *

- target system: IDO protease in HeLa cells (Homo sapiens (Human), UniProt P14902)
- Sequence (P14902 whole entry): as above
- method summary: Inhibition of IDO protease in HeLa cells (IFNγ-induced, Trp/Kyn by RapidFire/MS)
- condition description: HeLa cells, 25 ng/ml IFNγ, 48 hours
Please respond with reported IC50 for every item in the list.
Give just the number in nM; leave the unit off.

Incoming: Which IC50 is reported for this compound? NS(=O)(=O)N1CC[C@H](CNc2nonc2/C(=N/O)Nc2ccc(F)c(Br)c2)C1 [Compound 9]
Outgoing: 15

Incoming: Which IC50 is reported for this compound? NS(=O)(=O)N1CC(CSc2nonc2/C(=N/O)Nc2ccc(F)c(Br)c2)C1 [Compound 148]
Outgoing: 14

Incoming: Which IC50 is reported for this compound? NS(=O)(=O)N1CC(CCNc2nonc2/C(=N/O)Nc2ccc(F)c(Br)c2)C1 [Compound 132]
Outgoing: 10

Incoming: Which IC50 is reported for this compound? NS(=O)(=O)N1CC[C@@H](CNc2nonc2/C(=N/O)Nc2ccc(F)c(Br)c2)C1 [Compound 8]
Outgoing: 17

Incoming: Which IC50 is reported for this compound? CNS(=O)(=O)N1CC(CNc2nonc2C(=NO)Nc2ccc(F)c(Br)c2)C1 [Compound 78]
Outgoing: 13

Incoming: Which IC50 is reported for this compound? [2H]C([2H])(Nc1nonc1/C(=N/O)Nc1ccc(F)c(Br)c1)C1CN(S(N)(=O)=O)C1 [Compound 150]
Outgoing: 9
